Where do these numbers come from? They come from the supplement of paper PMC6555819.

# Tested on: LXRa:RXRa (NR concentration 270 nM, RXRa partner concentration 90 nM)
# method: PBM binding z-score (relative to random genomic background probes); higher = stronger binding; sequences stand for … in GC…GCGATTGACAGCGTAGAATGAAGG
property_name: PBM binding z-score
The response must contain the number and no unit.

[Q] Please state recorded PBM binding z-score (tested on LXRa:RXRa (NR concentration 270 nM, RXRa partner concentration 90 nM)) of `AGAATGAGGTTATACGTAGATCATGGAAGAAAGT`
[A] 2.35

[Q] Query for LXRa:RXRa (NR concentration 270 nM, RXRa partner concentration 90 nM): what PBM binding z-score does the record show for `CCGAGTATGTTATGGGGCATTCAGGCAACGGTGA` ?
[A] -0.00818

[Q] Tell me reported PBM binding z-score for `TCTTGTAGATCAGCAGGTTAACAAAGCTGGCCAA` , tested with LXRa:RXRa (NR concentration 270 nM, RXRa partner concentration 90 nM).
[A] 0.368

[Q] What value of PBM binding z-score on LXRa:RXRa (NR concentration 270 nM, RXRa partner concentration 90 nM) does `TGTCAAATTTCAAAGGTAACGTAAGTATCCACAC` have?
[A] 0.784

[Q] Provide the documented PBM binding z-score with LXRa:RXRa (NR concentration 270 nM, RXRa partner concentration 90 nM) as the system for `TCGAGTAGGTTACCAATGGGGCATTCATCTTTCT`
[A] 1.01

[Q] Record lookup: for LXRa:RXRa (NR concentration 270 nM, RXRa partner concentration 90 nM), what PBM binding z-score belongs to `CCTACTGAGCCACGAAAGGTCATTGATTCAGTGA` ?
[A] 5.05

---

Kindly supply the reported PBM binding z-score values for the records listed here.
# Test system: LXRb homodimer (NR concentration 270 nM)
# method: PBM binding z-score (relative to random genomic background probes); higher = stronger binding; sequences stand for … in GC…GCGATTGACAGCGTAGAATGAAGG
Just the number, please, no unit after it.

[Q] State its PBM binding z-score on LXRb homodimer (NR concentration 270 nM): `GATACAGGGTCAGATAGAGGCCAGAGTATGGAAA`
[A] 0.456

[Q] Provide the documented PBM binding z-score with LXRb homodimer (NR concentration 270 nM) as the system for `ATACCAAGGTGATCGTGAGGTCGTTGACACTAAC`
[A] -0.392

[Q] Param readout = PBM binding z-score; param system = LXRb homodimer (NR concentration 270 nM); param query = `TAGCCTAGGTTATTGGGCCAGTATAGTACGCATC` ; response: value
[A] -0.786

[Q] Entry `GCCATTAGTTGAAAGGGCAACCGAATGATTCTCG` , system LXRb homodimer (NR concentration 270 nM): what PBM binding z-score was measured?
[A] -0.56

[Q] # returns recorded PBM binding z-score (system: LXRb homodimer (NR concentration 270 nM)) for `AGTCAAAGTTCATCTAGGTAACGGAAGATATGCT`
[A] 1.73

[Q] Give the reported PBM binding z-score for `CGAACTAGGTCATCCAGGACAGGGAATACATTGA` (system: LXRb homodimer (NR concentration 270 nM)).
[A] 0.035

[Q] Request: PBM binding z-score, test system LXRb homodimer (NR concentration 270 nM), entry `TGAATGAGGTTAAAGATCAGGAAACGTGGCGTCG`
[A] -0.0435

[Q] Form field: PBM binding z-score recorded for `CGTCCAAGGTCAGCAGGTCAGCGAAAGCGACGTG` with LXRb homodimer (NR concentration 270 nM) (enter value)
[A] -0.541

[Q] Please provide the recorded PBM binding z-score for `GGAACGATGGCAAGTTGATAGCAGAGTTTGATGG` , tested on LXRb homodimer (NR concentration 270 nM).
[A] -1.01

[Q] PBM binding z-score of `CGTCCAATGTCAATGCTAGGTCAGTGAAAGCATT` on LXRb homodimer (NR concentration 270 nM)?
[A] -0.123

[Q] Param readout = PBM binding z-score; param system = LXRb homodimer (NR concentration 270 nM); param query = `AGAACGAGGGCACGCTCAGTTGATAGCAGAGTAG` ; response: value
[A] -0.804

[Q] Param readout= PBM binding z-score; system= LXRb homodimer (NR concentration 270 nM); entry= `AGAATGAGGTTATTAAGATTAGGGAATTGCGGTC` ; returns value.
[A] 0.178
